Test system: platelet aggregation triggered by AA
Test: Arachidonic acid (AA)-induced platelet aggregation, whole blood aggregometry
Assay type: cell-based, human
Details: Platelet; human whole blood; read-out: IC50 (Mean ± SD, μM) on Arachidonic Acid-induced Platelet Aggregation
ENDPOINT: log10 of IC50 (log10 of the value in µM)
Could you please treat all values as log10 of IC50 in µM?

1) Cc1ccccc1O ... 1.08
2) Nc1cccc(O)c1O ... 0.58
3) CC(C)c1cccc(O)c1O ... 0.36
4) COc1cc(C)ccc1O ... 0.41
5) Cc1cccc(O)c1O ... 0.21

Now take the following molecule into account.
Input line: Output measured log10 of IC50 for this item: "Oc1cc(Cl)c(Cl)cc1O"
Output line: 0.53
